The entries below are paired with their reported half-life.
- experimentalProtocol: Pharmacokinetic study after IV injection or oral gavage
- Assay type: in vivo, male Sprague Dawley rat
- conditionSet: male, plasma; Sprague Dawley rats, 75 mg per rat; read-out: plasma t½
reportedEndpoint: half-life (min)

• CN(C(=O)CC[C@H](N)C(=O)O)[C@@H](CS)C(=O)NCC(=O)O = 33.6
• N[C@@H](CCC(=O)N[C@@H](CS)C(=O)NCC(=O)O)C(=O)O = 2

---

- experimentalProtocol: UV rescue of UVA-irradiated fibroblast cells (MTT)
- Type: cell-based
- conditionSet: peptide 0.0325 mmolL^−1, 24 h, no UV, mean ± SD, n = 6, read-out: % Cell Viability (no UV)
reportedEndpoint: viability at 24 h, 0.0325 mmolL^−1

• N[C@@H](CCC(=O)N[C@H](CS)C(=O)NCC(=O)O)C(=O)O [Compound 1.62] = 112%
• N[C@H](CCC(=O)N[C@H](CS)C(=O)NCC(=O)O)C(=O)O [Compound 1.64] = 128%
• N[C@H](CCC(=O)N[C@@H](CS)C(=O)NCC(=O)O)C(=O)O [Compound 1.63] = 137%
• CN(CC(=O)O)C(=O)[C@H](CS)NC(=O)CC[C@H](N)C(=O)O [Compound 1.65] = 58.8%
• CN(C(=O)CC[C@H](N)C(=O)O)[C@@H](CS)C(=O)NCC(=O)O [Compound 1.70] = 108%
• CN[C@@H](CCC(=O)N[C@@H](CS)C(=O)NCC(=O)O)C(=O)O [Compound 1.71] = 79.5%
